target: Met receptor (EGFR/Met chimeric cells, EMR) (Homo sapiens, UniProt P08581); construct: expressed in transfected cells; the other entry of the earlier key: EGFR (P00533, Epidermal growth factor receptor); assay: Met Autophosphorylation Assay; format: biochemical
Sequence (P08581 with tags, fused parts or gaps): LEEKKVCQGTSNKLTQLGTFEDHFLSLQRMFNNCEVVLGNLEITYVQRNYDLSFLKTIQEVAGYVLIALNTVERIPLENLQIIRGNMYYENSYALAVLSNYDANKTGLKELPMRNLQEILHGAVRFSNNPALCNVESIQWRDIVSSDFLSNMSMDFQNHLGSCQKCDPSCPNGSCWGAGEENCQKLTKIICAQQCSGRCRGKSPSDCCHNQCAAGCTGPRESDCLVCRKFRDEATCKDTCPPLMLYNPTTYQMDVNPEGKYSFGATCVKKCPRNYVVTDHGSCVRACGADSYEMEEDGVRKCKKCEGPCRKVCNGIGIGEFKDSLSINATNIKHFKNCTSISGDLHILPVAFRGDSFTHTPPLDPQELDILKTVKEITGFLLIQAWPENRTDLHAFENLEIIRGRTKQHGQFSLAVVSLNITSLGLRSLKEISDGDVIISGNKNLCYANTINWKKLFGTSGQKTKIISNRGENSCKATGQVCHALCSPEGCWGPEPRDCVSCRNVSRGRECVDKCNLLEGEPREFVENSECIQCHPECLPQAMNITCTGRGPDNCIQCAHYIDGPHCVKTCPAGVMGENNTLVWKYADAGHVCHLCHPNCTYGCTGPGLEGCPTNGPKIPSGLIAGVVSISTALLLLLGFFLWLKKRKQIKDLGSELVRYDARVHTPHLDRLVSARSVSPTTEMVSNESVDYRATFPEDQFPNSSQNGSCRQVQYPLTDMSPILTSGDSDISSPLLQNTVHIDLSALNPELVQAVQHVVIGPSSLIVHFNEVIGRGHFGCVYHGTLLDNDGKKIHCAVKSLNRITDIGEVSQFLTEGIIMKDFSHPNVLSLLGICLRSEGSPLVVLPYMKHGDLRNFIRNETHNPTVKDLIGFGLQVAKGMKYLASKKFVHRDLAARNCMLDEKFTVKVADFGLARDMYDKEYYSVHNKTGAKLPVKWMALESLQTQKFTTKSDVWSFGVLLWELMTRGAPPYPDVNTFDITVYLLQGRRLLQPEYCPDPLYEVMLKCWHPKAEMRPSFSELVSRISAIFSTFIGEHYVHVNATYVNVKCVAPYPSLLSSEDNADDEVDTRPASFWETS
Could you please mark yes for values of Met Kinase % Inhibition (P.130) below 50% and no for values at or above it?

Take the compound `O=C1Nc2ccc(S(=O)(=O)Nc3ccc(C(F)(F)F)cc3)cc2C1=Cc1ccc(Cl)cc1Cl` and say whether its Met Kinase % Inhibition (P.130) is less than 50%. yes

Report whether reported Met Kinase % Inhibition (P.130) is lower than 50% (strictly) for `Cc1c(Br)cc(Br)c2c1C(=Cc1ccc(F)cc1Cl)C(=O)N2` yes

Problem: For the compound `O=C1Nc2ccc(S(=O)(=O)N3CCOCC3)cc2C1=Cc1cc(C(F)(F)F)cc(C(F)(F)F)c1` , is Met Kinase % Inhibition (P.130) under 50%? yes

hey, is Met Kinase % Inhibition (P.130) for `Cc1cc(C=C2C(=O)Nc3c(Br)cc(Br)c(C)c32)[nH]n1` lower than 50% or not? yes

Is Met Kinase % Inhibition (P.130) of `Cc1c(Br)cc(Br)c2c1C(=Cc1c(F)cc(F)cc1F)C(=O)N2` strictly below 50%? no

Decide: Met Kinase % Inhibition (P.130) of `Cc1c(Br)ccc2c1C(=Cc1ccc(C(C)(C)C)cc1)C(=O)N2` strictly below 50%? yes

Given the entry `Cc1ccc(C=C2C(=O)Nc3c(Br)cc(Br)c(C)c32)s1` , would its reported Met Kinase % Inhibition (P.130) be below 50%? yes

----------
molecular target: EGFR (Homo sapiens); construct: endogenous in cells; host or cells: A431 cells (lysate, captured with SUMO1 anti-EGFR antibody); assay: Biochemical EGFR Assay; parameters: concentration or dose not given beside the values
Quantity Measured: Biochem EGFR % Inhibition (P.167) (%)
One number for each entry, in %.

Some solved cases for reference:
>>> reported_value("Cc1c(Br)cc(Br)c2c1C(=Cc1ccccc1C#N)C(=O)N2")
3.8
>>> reported_value("COc1c(O)ccc(C=C2C(=O)Nc3c(Br)cc(Br)c(C)c32)c1[N+](=O)[O-]")
7.0
>>> reported_value("O=C1Nc2ccc(S(=O)(=O)N3CCOCC3)cc2C1=Cc1cccc(F)c1O")
"−23.6"
>>> reported_value("CCN(CC)c1ccc(C=C2C(=O)Nc3ccc(CCCl)cc32)c(O)c1")
"−0.3"
>>> reported_value("O=C1Nc2ccc(CCCl)cc2C1=Cc1cc(C(F)(F)F)cc(C(F)(F)F)c1")
2.1

Would you mind listing Biochem EGFR % Inhibition (P.167) for each of the following molecules?
1. CNS(=O)(=O)c1ccc2c(c1)C(=Cc1ccc(F)c(F)c1)C(=O)N2
2. Cc1cc(C=C2C(=O)Nc3c(Br)cc(Br)c(C)c32)cc(C(C)(C)C)c1O

1. 7.5
2. 75.5

Hi! Can you tell me Biochem EGFR % Inhibition (P.167) for each of these molecules?
1. Cc1c(Br)cc(Br)c2c1C(=Cc1ccc([N+](=O)[O-])o1)C(=O)N2
2. O=C1Nc2ccc(I)cc2C1=Cc1cccc(Cl)c1

1. 4.4
2. 12.6

----------
molecular target: EGFR (Homo sapiens, UniProt P00533); construct: endogenous in cells; host or cells: A431 cells (lysate, captured with SUMO1 anti-EGFR antibody); assay: Biochemical EGFR Assay; set-up: concentration or dose not given beside the values; conditions: protocol P.167
Sequence (P00533 25-1210): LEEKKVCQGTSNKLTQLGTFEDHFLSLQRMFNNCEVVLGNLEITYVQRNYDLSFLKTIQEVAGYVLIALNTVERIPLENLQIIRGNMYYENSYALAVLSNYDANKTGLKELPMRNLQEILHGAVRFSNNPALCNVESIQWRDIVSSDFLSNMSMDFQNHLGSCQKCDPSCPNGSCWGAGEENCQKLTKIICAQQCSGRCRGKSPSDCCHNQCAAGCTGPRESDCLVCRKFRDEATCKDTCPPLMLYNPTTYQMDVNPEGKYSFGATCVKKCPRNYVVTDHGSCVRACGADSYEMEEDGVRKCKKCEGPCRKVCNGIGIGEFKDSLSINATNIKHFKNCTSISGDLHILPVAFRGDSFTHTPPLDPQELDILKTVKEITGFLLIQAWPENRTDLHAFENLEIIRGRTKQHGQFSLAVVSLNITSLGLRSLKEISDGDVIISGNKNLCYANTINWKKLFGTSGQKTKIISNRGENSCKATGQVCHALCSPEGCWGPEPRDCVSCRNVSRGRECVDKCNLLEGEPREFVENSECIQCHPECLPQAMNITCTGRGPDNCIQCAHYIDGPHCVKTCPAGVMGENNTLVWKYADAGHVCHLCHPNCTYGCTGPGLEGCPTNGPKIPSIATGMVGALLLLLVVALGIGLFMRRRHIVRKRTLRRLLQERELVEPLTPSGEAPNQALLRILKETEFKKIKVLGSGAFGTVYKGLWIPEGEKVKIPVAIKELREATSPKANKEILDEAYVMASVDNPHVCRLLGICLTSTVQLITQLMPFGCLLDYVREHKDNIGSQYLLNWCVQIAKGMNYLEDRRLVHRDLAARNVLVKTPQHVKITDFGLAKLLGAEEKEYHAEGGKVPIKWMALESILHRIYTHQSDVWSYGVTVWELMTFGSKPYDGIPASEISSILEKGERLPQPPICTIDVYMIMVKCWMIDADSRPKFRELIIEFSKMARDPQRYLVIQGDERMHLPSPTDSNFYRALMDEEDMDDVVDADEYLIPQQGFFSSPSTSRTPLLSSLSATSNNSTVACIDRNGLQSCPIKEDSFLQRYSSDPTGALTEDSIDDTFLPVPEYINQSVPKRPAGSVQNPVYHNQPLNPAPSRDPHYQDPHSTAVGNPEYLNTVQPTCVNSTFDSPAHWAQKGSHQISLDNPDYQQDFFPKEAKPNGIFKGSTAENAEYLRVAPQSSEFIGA
Quantity Measured: Biochem EGFR % Inhibition (P.167) (%)
Answers are plain numbers, in %.

Would you please look over these solved cases?
>>> reported_value("O=C1Nc2ccc(S(=O)(=O)N3CCOCC3)cc2C1=Cc1cc(F)ccc1F")
"−23.3"
>>> reported_value("COc1ccccc1C=C1C(=O)Nc2ccc(Br)c(C)c21")
31.9
>>> reported_value("Cc1[nH]c2ccccc2c1C=C1C(=O)Nc2ccc(S(=O)(=O)Nc3ccc(C(F)(F)F)cc3)cc21")
3.1
>>> reported_value("CCOc1ccc(C=C2C(=O)Nc3ccc(S(=O)(=O)Nc4ccc(C(F)(F)F)cc4)cc32)cc1")
6.7

Please go through the list and note Biochem EGFR % Inhibition (P.167) for each compound.
1. O=C1Nc2c(Br)cc(Br)cc2C1=Cc1cccc(Oc2ccc(Cl)c(Cl)c2)c1
2. COc1ccc(C=C2C(=O)Nc3ccc(S(=O)(=O)Nc4ccc(C(F)(F)F)cc4)cc32)cc1O
3. O=C1Nc2ccc(S(=O)(=O)N3CCOCC3)cc2C1=CC1COc2ccccc2O1 (stereo not shown)
4. O=C1Nc2c(Br)cc(Br)cc2C1=Cc1ccoc1
5. Cc1c(Br)cc(Br)c2c1C(=Cc1cccc(Cl)c1)C(=O)N2
6. CNS(=O)(=O)c1ccc2c(c1)C(=Cc1cccc(F)c1F)C(=O)N2
7. O=C1Nc2ccc(CCCl)cc2C1=Cc1cccc(O)c1O
8. Cc1ccc(C)c(C=C2C(=O)Nc3ccc(S(=O)(=O)N4CCOCC4)cc32)c1

1: 40.5; 2: 13.1; 3: −16.4; 4: 20.7; 5: 12.6; 6: 17.9; 7: −8.2; 8: −25.5

----------
molecular target: EGFR (Homo sapiens); construct: endogenous in cells; host or cells: A431 cells (lysate, captured with SUMO1 anti-EGFR antibody); assay: Biochemical EGFR Assay; parameters: concentration or dose not given beside the values
Lab note: compare Biochem EGFR % Inhibition (P.167) against -40%. Equal or greater, write Criterion met. Smaller, write Criterion not met.

Known results for compounds:
>>> class_name("O=C1Nc2ccc(I)cc2C1=Cc1ccccc1C(F)(F)F [10736/B03]")
"Criterion not met"
>>> class_name("O=C1Nc2c(Br)cc(Br)cc2C1=Cc1cc(Cl)ccc1O [10734/A04]")
"Criterion met"
>>> class_name("O=C1Nc2ccc(S(=O)(=O)Nc3ccc(C(F)(F)F)cc3)cc2C1=Cc1cccc2ccccc12 [10735/E09]")
"Criterion met"
>>> class_name("O=C1Nc2ccc(I)cc2C1=Cc1ccc(Cl)cc1 [10736/B02]")
"Criterion met"

Check the entry Cc1c(Br)cc(Br)c2c1C(=Cc1cc(C(C)(C)C)c(O)c(C(C)(C)C)c1)C(=O)N2 [10721/H11] : does Biochem EGFR % Inhibition (P.167) equal or exceed -40%? Criterion met

----------
biological target: EGFR (Homo sapiens, UniProt P00533); construct: endogenous in cells; host or cells: A431 cells (lysate, captured with SUMO1 anti-EGFR antibody); assay: Biochemical EGFR Assay; design: concentration or dose not given beside the values; conditions: protocol P.167
Quantity Measured: Biochem EGFR % Inhibition (P.167)
State the value, then name its unit.

Example entries and their recorded answers appear below.
>>> reported_value("CNS(=O)(=O)c1ccc2c(c1)C(=Cc1cc(O)ccc1[N+](=O)[O-])C(=O)N2")
"4.3%"
>>> reported_value("CCCOc1ccc(C=C2C(=O)Nc3ccc(CCCl)cc32)cc1")
"19.4%"
>>> reported_value("CNS(=O)(=O)c1ccc2c(c1)C(=Cc1ccsc1)C(=O)N2")
"7.4%"
>>> reported_value("O=C1Nc2ccc(S(=O)(=O)Nc3ccc(C(F)(F)F)cc3)cc2C1=Cc1cc(O)ccc1[N+](=O)[O-]")
"52.0%"
>>> reported_value("O=C1Nc2ccc(CCCl)cc2C1=Cc1cc(Br)cs1")
"1.9%"

// batch mode: one Biochem EGFR % Inhibition (P.167) value per listed entry
1. O=C1Nc2ccc(S(=O)(=O)Nc3ccc(C(F)(F)F)cc3)cc2C1=Cc1ccnc2ccccc12
2. O=C1Nc2ccc(S(=O)(=O)Nc3ccc(C(F)(F)F)cc3)cc2C1=Cc1ccc(Cl)c(Cl)c1
3. Cc1c(Br)ccc2c1C(=Cc1ccsc1)C(=O)N2

24.6%
43.2%
3.5%

Entry under review: `COc1ccc(C=C2C(=O)Nc3ccc(Br)c(C)c32)cc1O` . Reported Biochem EGFR % Inhibition (P.167)? 43.7%

----------
Biological target: Met receptor (EGFR/Met chimeric cells, EMR) (Homo sapiens, UniProt P08581)
Construct: expressed in transfected cells; the other entry of the earlier key: EGFR (P00533, Epidermal growth factor receptor)
Assay: Met Autophosphorylation Assay
Assay type: biochemical
Conditions: protocol P.130
Experimental: Met Autophosphorylation Assay This assay determines Met tyrosine kinase activity by analyzing Met protein tyrosine kinase levels on the Met receptor. a. HNTG (5× stock solution): Dissolve 23.83 g HEPES and 43.83 g NaCl in about 350 ml dH2O. Adjust pH to 7.2 with HCl or NaOH, add 500 ml glycerol and 10 ml Triton X-100, mix, add dH2O to 1 L total volume. […] 2. […] Add ½ the calculated HNTG volume, vortex the tube for 1 min., add the remaining amount of HNTG, vortex for another min. […]
For each record, write down the corresponding Met Kinase % Inhibition (P.130).
Answers are plain numbers, in %.

For orientation, consider the following solved cases.
>>> reported_value("O=C1Nc2c(Br)cc(Br)cc2C1=Cc1ccc(O)cc1Cl")
70.1
>>> reported_value("O=C1Nc2c(Br)cc(Br)cc2C1=Cc1ccc(CO)o1")
82.8

Please go through the list and note Met Kinase % Inhibition (P.130) for each compound.
1. CC(C)c1ccc(C=C2C(=O)Nc3ccc(I)cc32)cc1
2. O=C1Nc2ccc(I)cc2C1=Cc1cc(O)ccc1[N+](=O)[O-]
3. CNS(=O)(=O)c1ccc2c(c1)C(=Cc1ccnc3ccccc13)C(=O)N2
4. CC(C)c1ccc(C=C2C(=O)Nc3ccc(CCCl)cc32)cc1
5. Cc1c(Br)ccc2c1C(=Cc1ccc3ccccc3c1)C(=O)N2
6. CCCCOc1ccc(C=C2C(=O)Nc3ccc(S(=O)(=O)Nc4ccc(C(F)(F)F)cc4)cc32)cc1
7. COc1ccc(Oc2cccc(C=C3C(=O)Nc4ccc(CCCl)cc43)c2)cc1

1: 70.7; 2: 67.6; 3: 64.4; 4: 12.5; 5: 54.1; 6: −16.9; 7: 20.9

Could I get Met Kinase % Inhibition (P.130) for every one of these entries?
1. CCOc1ccc(C=C2C(=O)Nc3ccc(S(=O)(=O)NC)cc32)cc1
2. O=C1Nc2ccc(I)cc2C1=CC1COc2ccccc2O1 (stereo not shown)

27.8
74.0

Need Met Kinase % Inhibition (P.130) for each of these compounds.
1. O=C1Nc2c(Br)cc(Br)cc2C1=Cc1cc(O)c(O)c(O)c1
2. Cc1c(Br)cc(Br)c2c1C(=Cc1ccc(Cl)c(Cl)c1)C(=O)N2
3. O=C1Nc2c(Br)cc(Br)cc2C1=Cc1cccc(O)c1O

1: 99.9; 2: 20.7; 3: 95.8

Respectfully, I request Met Kinase % Inhibition (P.130) for each entry included below.
1. O=C1Nc2ccc(S(=O)(=O)N3CCOCC3)cc2C1=Cc1cccc(Oc2ccc(Cl)c(Cl)c2)c1
2. O=C1Nc2ccc(I)cc2C1=Cc1ccc(O)cc1Cl
3. Cc1ccc(C=C2C(=O)Nc3c(Br)cc(Br)cc32)c(C)c1
4. Cc1[nH]c2ccccc2c1C=C1C(=O)Nc2ccc(CCCl)cc21

20.0
68.1
58.9
33.4

Quick check: Met Kinase % Inhibition (P.130) of `Cc1c(Br)cc(Br)c2c1C(=Cc1ccsc1)C(=O)N2` ? 25.6
